Quick reference: self-aminoacylation of the listed items.
Tested on: biotinyl-Trp-oxazolone
Experiment: self-aminoacylation, catalytic enhancement (BWO) (fold over background); higher = more active; k-Seq, kA / k0A0; sequences stand for … in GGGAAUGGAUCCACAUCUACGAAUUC…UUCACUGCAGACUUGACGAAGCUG
This sample holds only a part of the variants without activity.
Kindly provide the number alone.

If you can, please state the reported self-aminoacylation value of AUUCACCUAGGUUAGCGGGUG [Fam2.2 aminoacylation ribozyme variant] .
3.43

If you can, please state the reported self-aminoacylation value of AUUCGCCUAGGUCAUCGGCUG [Fam2.2 aminoacylation ribozyme variant] .
2.11

If you can, please state the reported self-aminoacylation value of ACUCACCUAGGUCAUCCGGUG [Fam2.2 aminoacylation ribozyme variant] .
7.81

If you can, please state the reported self-aminoacylation value of CCACACUUUAAGCAUUCGGUC [Fam1B.1 aminoacylation ribozyme variant] .
1.36

If you can, please state the reported self-aminoacylation value of AUUACCCUGGUGAUCGAGUGA [Fam2.1 aminoacylation ribozyme variant] .
5.95

If you can, please state the reported self-aminoacylation value of AUUCACCUAAGUCAUCGGGUA [Fam2.2 aminoacylation ribozyme variant] .
2.8

If you can, please state the reported self-aminoacylation value of ACUACCCUGGUCAUCGGGUGA [Fam2.1 aminoacylation ribozyme variant] .
57.6

If you can, please state the reported self-aminoacylation value of CUAGUUCAAACAGUCGGUCUG [Fam1A.1 aminoacylation ribozyme variant] .
0.759

* * *

Test system: biotinyl-Leu-oxazolone
Assay: self-aminoacylation, catalytic enhancement (BLO) (fold over background); higher = more active; k-Seq, kA / k0A0; sequences stand for … in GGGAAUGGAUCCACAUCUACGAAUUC…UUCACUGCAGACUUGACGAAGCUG
This sample holds only a part of the variants without activity.
property: self-aminoacylation
Kindly provide the number alone.

If you can, please state the reported self-aminoacylation value of AUUAUCCUGGUCAUCUAGUGA [Fam2.1 aminoacylation ribozyme variant] .
10.8

If you can, please state the reported self-aminoacylation value of CUAAUUCAAACUAUCGGUCUG [Fam1A.1 aminoacylation ribozyme variant] .
0.938

If you can, please state the reported self-aminoacylation value of GUUCCCCUAGGUCAUCGGGUG [Fam2.2 aminoacylation ribozyme variant] .
14.2

* * *

Tested on: biotinyl-Met-oxazolone
Experiment: self-aminoacylation, catalytic enhancement (BMO) (fold over background); higher = more active; k-Seq, kA / k0A0; sequences stand for … in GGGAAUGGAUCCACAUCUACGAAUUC…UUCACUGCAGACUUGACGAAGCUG
Fewer inactive variants are shown than the library holds.
property: self-aminoacylation
Kindly provide the number alone.

Some solved entries appear below for comparison.
chain.sequence: AUUAUCCUGGUCAUUGAGUGA [Fam2.1 aminoacylation ribozyme variant]
self-aminoacylation: 11.7
--
chain.sequence: UCACACUUCAAGCAAUCCGUC [Fam1B.1 aminoacylation ribozyme variant]
self-aminoacylation: 0.667
--
chain.sequence: AUUACCCUGGUCAUCGUGAGA [Fam2.1 aminoacylation ribozyme variant]
self-aminoacylation: 0.897
--
chain.sequence: AAUACCCUGGUCAUCGAAUGA [Fam2.1 aminoacylation ribozyme variant]
self-aminoacylation: 0.76
--
chain.sequence: AUCCACCUAGGUCACCGGGUG [Fam2.2 aminoacylation ribozyme variant]
self-aminoacylation: 5.52

If you can, please state the reported self-aminoacylation value of AUUACCCUGGUCACCAAGUGA [Fam2.1 aminoacylation ribozyme variant] .
6.45

If you can, please state the reported self-aminoacylation value of CCACACUUCAAGCAGUCGGUC [Fam1B.1 aminoacylation ribozyme variant] .
0.724

If you can, please state the reported self-aminoacylation value of AUUACCCUGGUCAUUGAGUGG [Fam2.1 aminoacylation ribozyme variant] .
2.54

If you can, please state the reported self-aminoacylation value of AUUACGCUGGUCAUCGAGUGG [Fam2.1 aminoacylation ribozyme variant] .
2.06

If you can, please state the reported self-aminoacylation value of CAACACUUAAAGCAAUCGGUC [Fam1B.1 aminoacylation ribozyme variant] .
0.98

If you can, please state the reported self-aminoacylation value of CCACACUUCAAGUAAUCGUUC [Fam1B.1 aminoacylation ribozyme variant] .
0.613

If you can, please state the reported self-aminoacylation value of AUUACCCUGGUCAUCGAGGGC [Fam2.1 aminoacylation ribozyme variant] .
1.77

If you can, please state the reported self-aminoacylation value of AUCCACCUAUGUCAUCGGGUG [Fam2.2 aminoacylation ribozyme variant] .
6.38

If you can, please state the reported self-aminoacylation value of CCACACUUCCAGCAAUCGAUC [Fam1B.1 aminoacylation ribozyme variant] .
0.673

Sourced from the supplement of paper PMC9233669
